Target: LXRβ (Homo sapiens)
Construct: Co-transfection expression plasmids, comprising full-length LXRα (pCMX-h LXRα or LXRβ (pCMX-hLXRβ)); expressed in transfected cells; host or cells: CV-1 African green monkey kidney cells, transient transfection with pCMX-hLXRβ
Assay: LXR/LXRE co-transfection assay (luciferase reporter) in CV-1 cells, LXRβ
Assay type: cell-based
Conditions: CV-1 cells, relative to maximum response of high control N-(3-((4-fluorophenyl)-(naphthalene-2-sulfonyl)amino)propyl)-2,2-dimethylpropionamide, read-out: LXRbeta % EFFICACY
observation.type: Emax (%)
Give the value, in units of %, as a plain number.

Answered examples (3):
[[record]]
sample_smiles = "Cc1nc(-c2cc(-c3cc(F)c(CO)c(S(C)(=O)=O)c3)ccc2-n2nc(C(F)(F)F)cc2C)c(-c2ccc3c(c2)OC(F)(F)O3)o1"
unit_string = "%"
numeric_result = 84

[[record]]
sample_smiles = "Cc1nc(-c2ccc(OC(F)(F)F)cc2)c(-c2cc(-c3cc(F)c(CO)c(S(C)(=O)=O)c3)ccc2-n2ccc(C(C)(C)O)n2)o1"
unit_string = "%"
numeric_result = 27

[[record]]
sample_smiles = "Cc1nc(-c2ccc(OC(F)(F)F)cc2)c(-c2cc(-c3ccc(CO)c(S(C)(=O)=O)c3)ccc2-n2ccc(C(C)(C)C#N)n2)o1"
unit_string = "%"
numeric_result = 29


**Q:** Lab note: LXRβ (Homo sapiens) assay, enter Emax for Cc1nc(-c2cc(-c3cccc(S(C)(=O)=O)c3)ccc2-n2ccc(C(F)(F)F)n2)c(-c2ccc(OC(F)F)c(Cl)c2)o1 here
**A:** 68

**Q:** Supply Emax measured with LXRβ (Homo sapiens) for Cc1nc(-c2cc(F)c(OC(F)F)c(F)c2)c(-c2cc(-c3cccc(S(C)(=O)=O)c3)ccc2-n2ccc(C(F)(F)F)n2)o1 .
**A:** 77

**Q:** Lab note: LXRβ (Homo sapiens) assay, enter Emax for Cc1nc(-c2ccc3c(c2)OC(F)(F)O3)c(-c2cc(-c3cc(F)c(CO)c(S(C)(=O)=O)c3)ccc2-c2cc(C(C)(C)C(N)=O)nn2C)o1 here
**A:** 55

###

Target: LXRβ (Homo sapiens, UniProt P55055)
Construct: Co-transfection expression plasmids, comprising full-length LXRα (pCMX-h LXRα or LXRβ (pCMX-hLXRβ))
Sequence (P55055 whole entry): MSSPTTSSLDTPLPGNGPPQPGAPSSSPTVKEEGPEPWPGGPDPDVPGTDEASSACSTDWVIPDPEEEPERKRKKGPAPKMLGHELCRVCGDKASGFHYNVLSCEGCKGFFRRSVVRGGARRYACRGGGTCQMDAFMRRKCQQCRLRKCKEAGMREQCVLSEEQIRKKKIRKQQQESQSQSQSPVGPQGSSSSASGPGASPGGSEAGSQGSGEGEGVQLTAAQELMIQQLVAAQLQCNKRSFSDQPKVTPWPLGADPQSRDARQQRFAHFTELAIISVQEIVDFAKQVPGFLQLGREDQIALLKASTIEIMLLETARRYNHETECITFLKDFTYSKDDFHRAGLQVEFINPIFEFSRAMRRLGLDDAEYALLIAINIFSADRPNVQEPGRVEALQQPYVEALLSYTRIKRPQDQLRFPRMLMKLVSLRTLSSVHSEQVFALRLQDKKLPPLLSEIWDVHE
Sequence (P19793 whole entry partner): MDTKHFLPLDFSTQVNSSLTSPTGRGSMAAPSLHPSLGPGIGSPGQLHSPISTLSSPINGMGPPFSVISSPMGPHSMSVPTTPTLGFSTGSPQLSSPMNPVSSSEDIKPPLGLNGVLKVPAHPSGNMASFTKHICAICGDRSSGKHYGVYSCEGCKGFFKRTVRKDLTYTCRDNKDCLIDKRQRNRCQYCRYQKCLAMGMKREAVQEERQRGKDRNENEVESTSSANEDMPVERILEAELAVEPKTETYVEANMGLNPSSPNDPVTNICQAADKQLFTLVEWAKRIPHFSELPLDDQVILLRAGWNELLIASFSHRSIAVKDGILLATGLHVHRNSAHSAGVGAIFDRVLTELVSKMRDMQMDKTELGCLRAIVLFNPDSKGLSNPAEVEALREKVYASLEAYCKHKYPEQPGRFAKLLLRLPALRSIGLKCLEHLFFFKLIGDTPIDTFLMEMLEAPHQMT
Experiment: LXR/LXRE co-transfection assay (luciferase reporter) in CV-1 cells, LXRβ
Settings: CV-1 cells transfected with pCMX-hLXRβ and LXREx1-Tk-Luciferase, 20 hours incubation, read-out: LXRbeta agonism EC50
observation.type: pEC50
Lab note: report pEC50 as minus log10 of the concentration in molar units, number only.

Worked cases, answers included:
[[record]]
sample_smiles = "Cc1nc(-c2ccc3c(c2)OC(F)(F)O3)c(-c2cc(-c3cc(F)c(CO)c(S(C)(=O)=O)c3)ccc2-c2cc(C(F)(F)C(=O)NCC(N)=O)nn2C)o1"
numeric_result = 5.32

[[record]]
sample_smiles = "Cc1nc(-c2cc(F)c(OC(F)F)c(F)c2)c(-c2cc(-c3cccc(S(C)(=O)=O)c3)ccc2-n2cc(Cl)c(C(F)(F)F)n2)o1"
numeric_result = 7.68


**Q:** Using LXRβ (Homo sapiens, UniProt P55055) as the test system, report measured pEC50 of Cc1c(C(C)(F)F)nn(C)c1-c1ccc(-c2ccc(CO)c(S(C)(=O)=O)c2)cc1-n1nncc1-c1ccc(OC(F)(F)F)cc1 .
**A:** 7.82
